# Tested on: panel of 55 breast cancer cell lines
# experimental-protocol: Cell growth inhibition assay (Cell Titer Glo, 72 h, 9 doses; GI50, TGI, LC50)
# Type: cell-based, human
# conditions: cell line HCC70; censored GI50 values; value is the negative log10 of mol/L
Exercise: state measured GI50 for each of the molecules provided.
Reply: number alone, nothing else.

// query # lookup: GI50 of COc1ncc(-c2ccc3nccc(-c4ccnnc4)c3c2)cc1NS(=O)(=O)c1ccc(F)cc1F [GSK2126458A]
// result 8.13

// query # lookup: GI50 of COc1cc2c(Nc3ccc(NC(=O)c4ccccc4)cc3)ncnc2cc1OCCCN1CCOCC1
// result 6.01

// query # lookup: GI50 of COc1ccc(C2=N[C@@H](c3ccc(Cl)cc3)[C@@H](c3ccc(Cl)cc3)N2C(=O)N2CCNC(=O)C2)c(OC(C)C)c1
// result 4.73

// query # lookup: GI50 of O=C1NC(=O)/C(=C/c2ccc3nccc(-c4ccncc4)c3c2)S1 [GSK1059615B]
// result 6.75

----------
# Tested on: panel of 55 breast cancer cell lines
# experimental-protocol: Cell growth inhibition assay (Cell Titer Glo, 72 h, 9 doses; GI50, TGI, LC50)
# Assay type: cell-based, human
# conditions: cell line BT483; value is the negative log10 of mol/L
# note: boundary value 5 maps to f; GI50 below it maps to t

// query I wonder whether CC(C)(C)c1cc(C=C(C#N)C#N)cc(Br)c1O has GI50 below 5. Can you tell?
// result t

// query I wonder whether N#Cc1c(NC(=O)c2cccc3ccccc23)sc2c1CCCC2 has GI50 below 5. Can you tell?
// result f

// query I wonder whether O=C1C(Cl)=C(NCCN2CCOCC2)C(=O)c2ncccc21 has GI50 below 5. Can you tell?
// result f

// query I wonder whether O=S(=O)(CC1CS1)c1ccc(Oc2ccccc2)cc1 (centres unmarked) has GI50 below 5. Can you tell?
// result t

// query I wonder whether Oc1cc(-c2nc(-c3ccccc3)[nH]c2-c2ccncc2)ccc1Cl has GI50 below 5. Can you tell?
// result t

// query I wonder whether N.N.O=C([O-])C1(C(=O)[O-])CCC1.[Pt+2] has GI50 below 5. Can you tell?
// result f

// query I wonder whether CCn1cc(-c2ccnc3[nH]c(-c4cccc(CN(C)C)c4)cc23)c(-c2ccc(NC(=O)N(C)C)cc2)n1 has GI50 below 5. Can you tell?
// result f

// query I wonder whether CC(=O)Nc1cccc(-n2c(=O)n(C3CC3)c(=O)c3c(Nc4ccc(I)cc4F)n(C)c(=O)c(C)c32)c1.C[S+](C)[O-] [GSK1120212B] has GI50 below 5. Can you tell?
// result t

// query I wonder whether CCNCCCCNCCCCNCCCCNCCCCNCC=CCNCCCCNCCCCNCCCCNCCCCNCC.Cl.Cl.Cl.Cl.Cl.Cl.Cl.Cl.Cl.Cl (stereo in doubt) has GI50 below 5. Can you tell?
// result f

// query I wonder whether Cc1cc(Nc2cc(N3CCN(C)CC3)nc(Sc3ccc(NC(=O)C4CC4)cc3)n2)n[nH]1 has GI50 below 5. Can you tell?
// result f

// query I wonder whether CC(C)Oc1ccc(C(=O)N[C@H](CNC(=O)CN(C)C)Cc2ccc(-c3cn4cccc([C@H](C)O)c4n3)cc2)cc1Cl has GI50 below 5. Can you tell?
// result f

// query I wonder whether COc1cccc(-c2cc(=O)c3ccccc3o2)c1N has GI50 below 5. Can you tell?
// result t

// query I wonder whether O=C1NC(=O)/C(=C/c2ccc(-c3ccc(F)cc3O)o2)S1 has GI50 below 5. Can you tell?
// result f

// query I wonder whether O=c1[nH]c(=O)n([C@H]2C[C@H](O)[C@@H](CO)O2)cc1F has GI50 below 5. Can you tell?
// result t

// query I wonder whether Cc1cc(C(=O)N2CCN(c3cccc(Cl)c3)CC2)n(-c2ccccc2)n1 [XRP44X] has GI50 below 5. Can you tell?
// result t

// query I wonder whether CC(C)[C@H](CO)Nc1nc(Nc2cccc(Cl)c2)c2ncn(C(C)C)c2n1 has GI50 below 5. Can you tell?
// result t

// query I wonder whether COc1ccc(C2=N[C@@H](c3ccc(Cl)cc3)[C@@H](c3ccc(Cl)cc3)N2C(=O)N2CCNC(=O)C2)c(OC(C)C)c1 has GI50 below 5. Can you tell?
// result f

// query I wonder whether O=c1[nH]c2ccccc2n1C1CCN(Cc2ccc(-c3nc4cc5[nH]cnc5cc4nc3-c3ccccc3)cc2)CC1 has GI50 below 5. Can you tell?
// result f

// query I wonder whether NS(=O)(=O)c1ccc(Nc2nc(OCC3CCCCC3)c3[nH]cnc3n2)cc1 has GI50 below 5. Can you tell?
// result t

// query I wonder whether C=CCNC1=C2C[C@@H](C)C[C@H](OC)[C@H](O)[C@@H](C)/C=C(\C)[C@H](OC(N)=O)[C@@H](OC)/C=C\C=C(/C)C(=O)NC(=CC1=O)C2=O has GI50 below 5. Can you tell?
// result f

// query I wonder whether COc1cc2c(Nc3ccc(NC(=O)c4ccccc4)cc3)ncnc2cc1OCCCN1CCOCC1 has GI50 below 5. Can you tell?
// result t

// query I wonder whether COc1cc2ncnc(Nc3cccc(Cl)c3)c2cc1OC has GI50 below 5. Can you tell?
// result f
